Consider the following Kd data for Retinoic acid receptor RXR-beta (Homo sapiens, UniProt P28702), collected from several reports.
Sequence (P28702 whole entry): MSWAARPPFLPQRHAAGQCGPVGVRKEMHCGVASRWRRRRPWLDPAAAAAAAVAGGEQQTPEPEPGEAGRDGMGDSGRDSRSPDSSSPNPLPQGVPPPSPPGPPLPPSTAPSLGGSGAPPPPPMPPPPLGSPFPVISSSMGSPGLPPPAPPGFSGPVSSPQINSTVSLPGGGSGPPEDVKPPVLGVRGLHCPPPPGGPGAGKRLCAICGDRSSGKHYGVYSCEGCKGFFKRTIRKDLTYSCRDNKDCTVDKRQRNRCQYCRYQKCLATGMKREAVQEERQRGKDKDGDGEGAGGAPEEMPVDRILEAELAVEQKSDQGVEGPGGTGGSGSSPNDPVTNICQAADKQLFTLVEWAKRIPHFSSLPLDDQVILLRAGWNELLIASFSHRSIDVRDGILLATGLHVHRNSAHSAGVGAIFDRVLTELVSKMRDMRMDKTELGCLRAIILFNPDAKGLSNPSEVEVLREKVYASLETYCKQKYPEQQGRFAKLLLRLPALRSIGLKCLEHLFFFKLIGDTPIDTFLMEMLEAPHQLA

CC(/C=C/[C@@H]1C[C@]1(C)c1ccc2c(c1)OC(C)(C)C=C2C(C)(C)C)=C\C(=O)O    1.6 nM
CC(C)(C)c1cc(C(=O)Nc2ccc(C(=O)O)cc2)cc(C(C)(C)C)n1    > 1000 nM
CC1(C)CC(C)(C)c2cc(C(=O)Nc3ccc(C(=O)O)c(F)c3)ccc2O1    > 1000 nM

Now for another entry.
query: Identify Kd associated with the molecule CC1(C)CC(C)(C)c2cc(C(=O)Nc3ccc(C(=O)O)c(F)c3)cc(C(F)(F)F)c2O1
result: > 1000 nM
